System Name: BSEP (Homo sapiens, UniProt O95342)
Sequence (O95342 whole entry): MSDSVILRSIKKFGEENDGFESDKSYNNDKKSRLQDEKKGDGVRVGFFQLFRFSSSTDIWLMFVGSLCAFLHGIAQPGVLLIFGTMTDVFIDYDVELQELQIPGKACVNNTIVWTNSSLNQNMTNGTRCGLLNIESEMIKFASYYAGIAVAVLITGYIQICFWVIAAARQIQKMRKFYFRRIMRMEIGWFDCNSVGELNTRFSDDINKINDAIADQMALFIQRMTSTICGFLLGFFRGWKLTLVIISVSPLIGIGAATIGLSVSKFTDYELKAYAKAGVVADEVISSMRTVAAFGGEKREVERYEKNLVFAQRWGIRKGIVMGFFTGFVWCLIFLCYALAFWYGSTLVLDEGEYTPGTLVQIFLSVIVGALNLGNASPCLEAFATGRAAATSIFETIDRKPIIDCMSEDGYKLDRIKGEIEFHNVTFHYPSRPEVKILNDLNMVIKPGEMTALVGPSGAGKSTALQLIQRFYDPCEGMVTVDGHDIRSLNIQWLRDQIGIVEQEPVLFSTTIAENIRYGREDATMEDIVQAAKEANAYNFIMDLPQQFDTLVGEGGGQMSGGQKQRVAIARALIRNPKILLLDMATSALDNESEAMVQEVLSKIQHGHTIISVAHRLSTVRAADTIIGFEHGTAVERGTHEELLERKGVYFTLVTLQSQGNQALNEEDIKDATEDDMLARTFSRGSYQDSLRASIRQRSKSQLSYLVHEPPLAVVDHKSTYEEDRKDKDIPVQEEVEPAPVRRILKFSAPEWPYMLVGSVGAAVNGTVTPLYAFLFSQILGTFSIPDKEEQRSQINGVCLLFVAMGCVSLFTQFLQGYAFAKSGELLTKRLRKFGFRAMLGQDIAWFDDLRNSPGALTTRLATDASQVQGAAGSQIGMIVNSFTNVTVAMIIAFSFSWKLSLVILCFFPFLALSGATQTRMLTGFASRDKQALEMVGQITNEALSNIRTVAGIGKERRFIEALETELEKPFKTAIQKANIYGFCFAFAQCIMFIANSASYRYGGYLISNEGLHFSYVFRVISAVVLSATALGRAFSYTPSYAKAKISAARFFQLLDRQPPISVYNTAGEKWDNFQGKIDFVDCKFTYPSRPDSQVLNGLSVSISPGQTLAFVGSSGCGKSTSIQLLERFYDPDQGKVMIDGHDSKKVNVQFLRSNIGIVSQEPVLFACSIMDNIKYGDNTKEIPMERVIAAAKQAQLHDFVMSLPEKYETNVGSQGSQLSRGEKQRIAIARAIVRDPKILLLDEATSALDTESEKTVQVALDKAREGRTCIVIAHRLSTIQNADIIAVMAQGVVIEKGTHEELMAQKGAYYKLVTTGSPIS
Experiment Description: in vitro

Chemical Structure	inhibition at 1 h, 10 μM
S=P(N1CC1)(N1CC1)N1CC1	< 50%

----------
System Name: BSEP (Macaca fascicularis, UniProt D2CFL3)
Sequence (D2CFL3 1-1323): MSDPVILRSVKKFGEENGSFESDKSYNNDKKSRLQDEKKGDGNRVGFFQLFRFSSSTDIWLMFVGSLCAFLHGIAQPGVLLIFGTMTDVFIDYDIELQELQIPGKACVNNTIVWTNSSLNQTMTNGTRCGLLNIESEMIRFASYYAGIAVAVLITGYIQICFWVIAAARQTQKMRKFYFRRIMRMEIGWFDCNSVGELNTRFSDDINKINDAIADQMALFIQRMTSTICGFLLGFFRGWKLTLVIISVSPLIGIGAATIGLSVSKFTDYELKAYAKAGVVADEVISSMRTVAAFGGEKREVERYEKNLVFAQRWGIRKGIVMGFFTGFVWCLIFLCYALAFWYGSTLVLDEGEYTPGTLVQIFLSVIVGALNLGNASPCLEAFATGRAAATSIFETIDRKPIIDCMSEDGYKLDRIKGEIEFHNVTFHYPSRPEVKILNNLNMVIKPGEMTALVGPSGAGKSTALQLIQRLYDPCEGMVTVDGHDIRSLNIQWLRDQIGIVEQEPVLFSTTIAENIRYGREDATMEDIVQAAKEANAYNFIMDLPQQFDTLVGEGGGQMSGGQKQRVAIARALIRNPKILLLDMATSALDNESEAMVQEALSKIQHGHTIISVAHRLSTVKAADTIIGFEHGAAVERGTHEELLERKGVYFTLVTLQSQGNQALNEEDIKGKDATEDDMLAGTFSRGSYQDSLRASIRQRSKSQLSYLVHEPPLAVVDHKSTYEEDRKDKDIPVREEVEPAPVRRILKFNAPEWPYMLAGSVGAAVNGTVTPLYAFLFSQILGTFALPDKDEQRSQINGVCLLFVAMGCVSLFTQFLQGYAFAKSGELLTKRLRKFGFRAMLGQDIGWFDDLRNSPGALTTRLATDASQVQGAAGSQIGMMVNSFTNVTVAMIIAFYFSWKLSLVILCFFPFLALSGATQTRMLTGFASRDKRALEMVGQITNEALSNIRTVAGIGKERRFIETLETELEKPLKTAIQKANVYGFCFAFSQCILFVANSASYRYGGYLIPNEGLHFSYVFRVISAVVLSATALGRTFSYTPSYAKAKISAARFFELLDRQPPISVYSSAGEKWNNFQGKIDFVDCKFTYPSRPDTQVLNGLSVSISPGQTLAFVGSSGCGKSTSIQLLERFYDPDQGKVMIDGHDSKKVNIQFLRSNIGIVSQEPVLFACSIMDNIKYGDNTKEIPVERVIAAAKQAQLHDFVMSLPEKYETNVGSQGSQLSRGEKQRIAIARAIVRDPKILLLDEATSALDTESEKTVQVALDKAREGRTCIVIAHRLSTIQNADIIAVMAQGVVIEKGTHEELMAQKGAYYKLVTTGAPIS
Experiment Description: in vitro
Test Settings: monkey, hepatocytes in suspension, probe glycocholate

Compound	inhibition at 1 h, 1 μM
Cc1c(O)cccc1C(=O)N[C@@H](CSc1ccccc1)[C@H](O)CN1C[C@H]2CCCC[C@H]2C[C@H]1C(=O)NC(C)(C)C	< 50%
COC(=O)N[C@H](C(=O)N[C@@H](Cc1ccccc1)[C@@H](O)CN(Cc1ccc(-c2ccccn2)cc1)NC(=O)[C@@H](NC(=O)OC)C(C)(C)C)C(C)(C)C	< 50%
CC(=O)N1CCN(c2ccc(OCC3COC(Cn4ccnc4)(c4ccc(Cl)cc4Cl)O3)cc2)CC1 (stereo not shown)	< 50%
O=c1c(O)c(-c2ccc(O)c(O)c2)oc2cc(O)cc(O)c12	< 50%
Cc1c(C)c2c(c(C)c1O)CCC(C)(COc1ccc(CC3SC(=O)NC3=O)cc1)O2 (stereo not shown)	> 50%
OC(Cn1cncn1)(Cn1cncn1)c1ccc(F)cc1F	< 50%
S=P(N1CC1)(N1CC1)N1CC1	< 50%

----------
Catalogue of molecules with associated inhibition at 1 h, 1 μM
System Name: BSEP (Canis lupus familiaris)
Experiment Description: Inhibition of BSEP activity (transport of taurocholate) in dog hepatocytes
Test Settings: hepatocytes in suspension, probe taurocholate

Molecule	System Name	inhibition at 1 h, 1 μM
CC(=O)N1CCN(c2ccc(OCC3COC(Cn4ccnc4)(c4ccc(Cl)cc4Cl)O3)cc2)CC1 (stereo not drawn)	BSEP (Canis lupus familiaris)	< 50%
CC[C@]1(O)C[C@@H]2CN(CCc3c([nH]c4ccccc34)[C@@](C(=O)OC)(c3cc4c(cc3OC)N(C)[C@H]3[C@@](O)(C(=O)OC)[C@H](OC(C)=O)[C@]5(CC)C=CCN6CC[C@]43[C@@H]65)C2)C1	BSEP (Canis lupus familiaris)	< 50%
O=c1c(O)c(-c2ccc(O)c(O)c2)oc2cc(O)cc(O)c12	BSEP (Canis lupus familiaris)	< 50%

----------
System Name: BSEP (Homo sapiens, UniProt O95342)
Experiment Description: in vitro
Test Settings: hepatocytes in suspension, probe glycocholate

Compound	System Name	inhibition at 1 h, 1 μM
Cc1c(C)c2c(c(C)c1O)CCC(C)(COc1ccc(CC3SC(=O)NC3=O)cc1)O2 (stereo not shown) [Troglitazone, troglitazone]	BSEP (Homo sapiens, UniProt O95342)	> 50%
C=C[C@H]1C[N@@]2CC[C@H]1C[C@@H]2[C@@H](O)c1ccnc2ccc(OC)cc12 [Quinidine, quinidine]	BSEP (Homo sapiens, UniProt O95342)	< 50%
CC(C)NCC(O)COc1cccc2ccccc12 (stereo not shown) [Propranolol, propranolol]	BSEP (Homo sapiens, UniProt O95342)	< 50%
O=c1c(O)c(-c2ccc(O)c(O)c2)oc2cc(O)cc(O)c12 [Quercetin, quercetin]	BSEP (Homo sapiens, UniProt O95342)	< 50%

----------
Parameter: inhibition at 1 h, 10 μM. Scope: all listed entries.
System Name: BSEP (Canis lupus familiaris, UniProt B8K1W2)
Sequence (B8K1W2 1-1325): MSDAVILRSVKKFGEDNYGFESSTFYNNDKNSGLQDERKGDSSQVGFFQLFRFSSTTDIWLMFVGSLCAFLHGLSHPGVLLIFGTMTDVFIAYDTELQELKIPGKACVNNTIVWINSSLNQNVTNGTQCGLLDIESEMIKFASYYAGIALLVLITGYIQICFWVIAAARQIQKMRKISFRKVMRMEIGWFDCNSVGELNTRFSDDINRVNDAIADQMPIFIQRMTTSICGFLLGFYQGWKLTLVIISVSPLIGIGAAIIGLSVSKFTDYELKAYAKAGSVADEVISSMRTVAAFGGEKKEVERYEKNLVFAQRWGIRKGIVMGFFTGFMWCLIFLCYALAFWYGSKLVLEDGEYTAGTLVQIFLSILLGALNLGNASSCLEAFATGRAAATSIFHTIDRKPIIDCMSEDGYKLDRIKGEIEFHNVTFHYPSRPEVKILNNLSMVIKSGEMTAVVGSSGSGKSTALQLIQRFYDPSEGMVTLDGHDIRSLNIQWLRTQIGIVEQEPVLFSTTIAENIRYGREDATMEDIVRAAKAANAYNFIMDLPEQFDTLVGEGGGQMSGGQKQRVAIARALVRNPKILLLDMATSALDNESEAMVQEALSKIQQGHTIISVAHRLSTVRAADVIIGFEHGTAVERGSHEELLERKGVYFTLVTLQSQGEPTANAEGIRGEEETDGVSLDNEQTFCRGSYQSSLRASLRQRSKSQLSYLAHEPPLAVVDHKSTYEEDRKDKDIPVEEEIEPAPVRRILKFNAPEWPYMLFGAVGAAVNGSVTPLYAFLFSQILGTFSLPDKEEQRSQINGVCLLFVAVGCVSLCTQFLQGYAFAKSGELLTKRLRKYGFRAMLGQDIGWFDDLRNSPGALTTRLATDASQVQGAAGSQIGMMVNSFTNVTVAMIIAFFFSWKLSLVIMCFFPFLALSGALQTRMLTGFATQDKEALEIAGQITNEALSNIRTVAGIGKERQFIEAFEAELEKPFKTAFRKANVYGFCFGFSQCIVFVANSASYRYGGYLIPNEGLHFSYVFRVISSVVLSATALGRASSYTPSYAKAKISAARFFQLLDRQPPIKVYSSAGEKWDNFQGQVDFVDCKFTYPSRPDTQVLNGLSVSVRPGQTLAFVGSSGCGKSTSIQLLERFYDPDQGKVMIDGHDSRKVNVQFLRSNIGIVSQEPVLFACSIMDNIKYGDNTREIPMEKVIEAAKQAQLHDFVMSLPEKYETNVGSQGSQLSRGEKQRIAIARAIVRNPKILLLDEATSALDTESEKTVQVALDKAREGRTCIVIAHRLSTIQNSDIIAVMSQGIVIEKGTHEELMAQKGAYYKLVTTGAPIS
Experiment Description: Inhibition of BSEP activity (transport of taurocholate) in dog hepatocytes
Test Settings: hepatocytes in suspension, probe taurocholate
Measured Attribute: inhibition at 1 h, 10 μM

Compound	Reported Value
Cc1c(C)c2c(c(C)c1O)CCC(C)(COc1ccc(CC3SC(=O)NC3=O)cc1)O2 (stereo not shown)	> 50%
CC[C@]1(O)C[C@@H]2CN(CCc3c([nH]c4ccccc34)[C@@](C(=O)OC)(c3cc4c(cc3OC)N(C)[C@H]3[C@@](O)(C(=O)OC)[C@H](OC(C)=O)[C@]5(CC)C=CCN6CC[C@]43[C@@H]65)C2)C1	< 50%
Cc1c(O)cccc1C(=O)N[C@@H](CSc1ccccc1)[C@H](O)CN1C[C@H]2CCCC[C@H]2C[C@H]1C(=O)NC(C)(C)C	> 50%
COC(=O)N[C@H](C(=O)N[C@@H](Cc1ccccc1)[C@@H](O)CN(Cc1ccc(-c2ccccn2)cc1)NC(=O)[C@@H](NC(=O)OC)C(C)(C)C)C(C)(C)C	> 50%
CC(C)NCC(O)COc1cccc2ccccc12 (stereo not shown)	< 50%
C=C[C@H]1C[N@@]2CC[C@H]1C[C@@H]2[C@@H](O)c1ccnc2ccc(OC)cc12	< 50%
OC(Cn1cncn1)(Cn1cncn1)c1ccc(F)cc1F	< 50%
C[C@@H](Oc1cc(-c2cnn(C3CCNCC3)c2)cnc1N)c1c(Cl)ccc(F)c1Cl	> 50%
O=c1c(O)c(-c2ccc(O)c(O)c2)oc2cc(O)cc(O)c12	> 50%
CC(=O)N1CCN(c2ccc(OCC3COC(Cn4ccnc4)(c4ccc(Cl)cc4Cl)O3)cc2)CC1 (stereo not shown)	< 50%

----------
System Name: BSEP (Homo sapiens, UniProt O95342)
Experiment Description: in vitro
Measured Attribute: inhibition at 1 h, 1 μM

Chemical Structure	System Name	Measured Attribute	Reported Value
S=P(N1CC1)(N1CC1)N1CC1	BSEP (Homo sapiens, UniProt O95342)	inhibition at 1 h, 1 μM	< 50%

----------
System Name: BSEP (Macaca fascicularis, UniProt D2CFL3)
Experiment Description: in vitro
Test Settings: monkey, hepatocytes in suspension, probe glycocholate
inhibition at 1 h, 10 μM for assorted molecules

Molecule	inhibition at 1 h, 10 μM
Cc1c(O)cccc1C(=O)N[C@@H](CSc1ccccc1)[C@H](O)CN1C[C@H]2CCCC[C@H]2C[C@H]1C(=O)NC(C)(C)C	> 50%
CC(=O)N1CCN(c2ccc(OCC3COC(Cn4ccnc4)(c4ccc(Cl)cc4Cl)O3)cc2)CC1 (centres unmarked)	> 50%
Cc1c(C)c2c(c(C)c1O)CCC(C)(COc1ccc(CC3SC(=O)NC3=O)cc1)O2 (centres unmarked)	> 50%
O=c1c(O)c(-c2ccc(O)c(O)c2)oc2cc(O)cc(O)c12	< 50%
C=C[C@H]1C[N@@]2CC[C@H]1C[C@@H]2[C@@H](O)c1ccnc2ccc(OC)cc12	< 50%
COC(=O)N[C@H](C(=O)N[C@@H](Cc1ccccc1)[C@@H](O)CN(Cc1ccc(-c2ccccn2)cc1)NC(=O)[C@@H](NC(=O)OC)C(C)(C)C)C(C)(C)C	> 50%
S=P(N1CC1)(N1CC1)N1CC1	< 50%
OC(Cn1cncn1)(Cn1cncn1)c1ccc(F)cc1F	< 50%
CC(C)NCC(O)COc1cccc2ccccc12 (centres unmarked)	< 50%
C[C@@H](Oc1cc(-c2cnn(C3CCNCC3)c2)cnc1N)c1c(Cl)ccc(F)c1Cl	< 50%
CC[C@]1(O)C[C@@H]2CN(CCc3c([nH]c4ccccc34)[C@@](C(=O)OC)(c3cc4c(cc3OC)N(C)[C@H]3[C@@](O)(C(=O)OC)[C@H](OC(C)=O)[C@]5(CC)C=CCN6CC[C@]43[C@@H]65)C2)C1	< 50%
